experiment: Pharmacokinetic experiment on SD rats (iv and ig); format: in vivo; conditions: Sprague-Dawley, rat, plasma, po, ig 5.00 mg/kg vs iv 1.00 mg/kg, read-out: Oral bioavailability Fobs (%)
Would you please tag the item yes when its bioavailability is 10% or above, and no when it is below?

Example entries and their recorded answers appear below.
Cc1nn(C2CCC(=O)NC2=O)c2cccc(OC3CCN(C[C@H]4CC[C@H](n5cc6cc(NC(=O)c7cnn8cccnc78)c(N7CCOCC7)cc6n5)CC4)CC3)c12 (some centres unmarked) [TM-56]: yes
Cc1nn(C2CCC(=O)NC2=O)c2cncc(N3CCN(C[C@H]4CC[C@H](n5cc6cc(NC(=O)c7cnn8cccnc78)c(N7CCO[C@H](C)C7)cc6n5)CC4)CC3)c12 (some centres unmarked) [TM-109]: no
Cc1nn(C2CCC(=O)NC2=O)c2cccc(N3CCC4(CC3)CN(C[C@H]3CC[C@H](n5cc6cc(NC(=O)c7cnn8cccnc78)c(N(C)C)cc6n5)CC3)C4)c12 (some centres unmarked) [TM-101]: yes

Query :: Could you please find out whether Cc1nn(C2CCC(=O)NC2=O)c2cccc(N3CCN(C[C@H]4CC[C@H](n5cc6cc(NC(=O)c7cnn8cccnc78)c(N7CCOCC7)cc6n5)CC4)CC3)c12 (some centres unmarked) [TM-33] has bioavailability that meets 10% or exceeds it?
Result :: yes

Query :: Is the recorded value of bioavailability equal to or greater than 10% for this compound? Cc1nn(C2CCC(=O)NC2=O)c2cccc(N3CC4CN(C[C@H]5CC[C@H](n6cc7cc(NC(=O)c8cnn9cccnc89)c(N8CCOCC8)cc7n6)CC5)CC4C3)c12 (some centres unmarked) [TM-57]
Result :: yes

====

What Cmax was measured for each of the following?
assay: Pharmacokinetic experiment on mice (iv and ig); assay type: in vivo; settings: mouse, plasma; BALB/c Mice, iv, 1.00 mg/kg; read-out: Peak plasma concentration Cmax
Numbers only, in ng/mL.

Some compounds with recorded Cmax:
Cc1nn(C2CCC(=O)NC2=O)c2cccc(N3CCN(C[C@H]4CC[C@H](n5cc6cc(NC(=O)c7cnn8cccnc78)c(N7CCOCC7)cc6n5)CC4)CC3)c12 (stereo partly shown): 6800
Cc1nn(C2CCC(=O)NC2=O)c2cccc(N3CCC4(CC3)CN(C[C@H]3CC[C@H](n5cc6cc(NC(=O)c7cnn8cccnc78)c(N(C)C)cc6n5)CC3)C4)c12 (stereo partly shown): 580
Cc1nn(C2CCC(=O)NC2=O)c2cccc(N3CC4CN(C[C@H]5CC[C@H](n6cc7cc(NC(=O)c8cnn9cccnc89)c(N8CCOCC8)cc7n6)CC5)CC4C3)c12 (stereo partly shown): 276

API: the following record is the query input.
Query :: Which Cmax value belongs to Cc1nn(C2CCC(=O)NC2=O)c2cncc(N3CCN(C[C@H]4CC[C@H](n5cc6cc(NC(=O)c7cnn8cccnc78)c(N7CCO[C@H](C)C7)cc6n5)CC4)CC3)c12 (stereo partly shown) ?
Result :: 605

====

experiment: Pharmacokinetic experiment on mice (iv and ig); type: in vivo; conditions: mouse, plasma; ICR Mice, iv, 1.00 mg/kg
endpoint.label: AUC (µg·h/mL)
One number for each entry, in µg·h/mL.

Query :: Could you share which AUC value was measured for Cc1nn(C2CCC(=O)NC2=O)c2cccc(OC3CCN(C[C@H]4CC[C@H](n5cc6cc(NC(=O)c7cnn8cccnc78)c(N7CCOCC7)cc6n5)CC4)CC3)c12 (stereo partly shown) ?
Result :: 0.524
